Assay: First-in-human Phase 1 study (safety, PK) in relapsed or refractory CLL
Type: in vivo
Conditions: human, plasma, oral, 100 mg, human CLL, Week 1 Day-3 single dose, Subject 3, 100 mg; read-out: AUC (AUCINF)
VALUE_KIND: AUC(0-inf) (ng·h/mL)
API: value field is a number in ng·h/mL; no unit string.

Query: Answer with reported AUC(0-inf) of CC1(C)CCC(CN2CCN(c3ccc(C(=O)NS(=O)(=O)c4ccc(NCC5CCOCC5)c([N+](=O)[O-])c4)c(Oc4cnc5[nH]ccc5c4)c3)CC2)=C(c2ccc(Cl)cc2)C1
Reply: 36300

---

Test: First-in-human Phase 1 study (safety, PK) in relapsed or refractory CLL
Type: in vivo
Details: human, plasma, oral, 200 mg, human CLL, Week 1 Day-3 single dose, Subject 2, 200 mg; read-out: AUC (AUCINF)
VALUE_KIND: AUC(0-inf) (µg·h/mL)
API: value field is a number in µg·h/mL; no unit string.

Query: Answer with reported AUC(0-inf) of CC1(C)CCC(CN2CCN(c3ccc(C(=O)NS(=O)(=O)c4ccc(NCC5CCOCC5)c([N+](=O)[O-])c4)c(Oc4cnc5[nH]ccc5c4)c3)CC2)=C(c2ccc(Cl)cc2)C1
Reply: 76

---

Record set of Ki for target or system Bcl-2 protein (Homo sapiens (Human)).

Query: Fill: Ki (Bcl-2 protein (Homo sapiens (Human))) for this molecule CC1(C)CCC(CN2CCN(c3ccc(C(=O)NS(=O)(=O)c4cnc(NCC5CCC(C)(O)CC5)c([N+](=O)[O-])c4)c(Oc4cnc5[nH]ccc5c4)c3)CC2)=C(c2ccc(Cl)cc2)C1 (stereo not shown) [Compound 376]
Reply: < 0.001 nM

Query: Fill: Ki (Bcl-2 protein (Homo sapiens (Human))) for this molecule CC1(C)CCC(CN2CCN(c3ccc(C(=O)NS(=O)(=O)c4ccc(OCC5CCC(C)(O)CC5)c(Cl)c4)c(Oc4cnc5[nH]ccc5c4)c3)CC2)=C(c2ccc(Cl)cc2)C1 (stereo not shown)
Reply: 0.016 nM

Query: Fill: Ki (Bcl-2 protein (Homo sapiens (Human))) for this molecule CC1(C)CCC(CN2CCN(c3ccc(C(=O)NS(=O)(=O)c4cnc(NCC5CCC(C)(O)CC5)c([N+](=O)[O-])c4)c(Oc4cnc5[nH]ccc5c4)c3)CC2)=C(c2ccc(Cl)cc2)C1 (stereo not shown) [Compound 371]
Reply: < 0.001 nM

Query: Fill: Ki (Bcl-2 protein (Homo sapiens (Human))) for this molecule COCCON1C=C(Cl)C=C(S(=O)(=O)NC(=O)c2ccc(N3CCN(CC4=C(c5ccc(Cl)cc5)CC(C)(C)CC4)CC3)cc2Oc2cnc3[nH]ccc3c2)C1
Reply: 0.19 nM

Query: Fill: Ki (Bcl-2 protein (Homo sapiens (Human))) for this molecule COC1(C)CCC(c2ccc(Cl)cc2)=C(CN2CCN(c3ccc(C(=O)NS(=O)(=O)c4ccc(NCC5CCC(C)(O)CC5)c([N+](=O)[O-])c4)c(Oc4cnc5[nH]ccc5c4)c3)CC2)C1 (stereo not shown)
Reply: < 0.001 nM

Query: Fill: Ki (Bcl-2 protein (Homo sapiens (Human))) for this molecule CC1(C)CCC(CN2CCN(c3ccc(C(=O)NS(=O)(=O)c4cnc(OCC5(F)CCC(O)CC5)c(Cl)c4)c(Oc4cnc5[nH]ccc5c4)c3)CC2)=C(c2ccc(Cl)cc2)C1 (stereo not shown)
Reply: < 0.01 nM

Query: Fill: Ki (Bcl-2 protein (Homo sapiens (Human))) for this molecule CC1(O)CCC(COc2ncc(S(=O)(=O)NC(=O)c3ccc(N4CCN(CC5=C(c6ccc(Cl)cc6)CC6(CC5)CC6)CC4)cc3Oc3cnc4[nH]ccc4c3)cc2Cl)CC1 (stereo not shown)
Reply: < 0.01 nM

Data origin, for the record: patent US11369599B2
